test system: THP1-Dual KO-TREX1 cells; assay: THP1 TREX1 KO inhibition assay (type 1 interferon response); format: cell-based; conditions: Homo sapiens, 144 h, type 1 interferon (QUANTI-LUC), 1 μM 5-aza-2′-deoxycytidine, six days
This section presents compounds with their documented IC50 values.
PROPERTY: IC50

{"CHEMICAL SMILES": "Nc1ccn([C@@H]2O[C@@](CO)(CCl)[C@@H](O)[C@@H]2O)c(=O)n1", "PROPERTY": "IC50", "TEST VALUE": "> 1000 nM"}
{"CHEMICAL SMILES": "C=C[C@]1(CO)O[C@@H](n2cnc3c(=O)[nH]c(N)nc32)[C@@H](F)[C@@H]1O", "PROPERTY": "IC50", "TEST VALUE": "> 1000 nM"}
{"CHEMICAL SMILES": "Nc1nc(=O)n([C@@H]2O[C@](/C=C/Cl)(CO)[C@@H](O)[C@@H]2F)cc1F", "PROPERTY": "IC50", "TEST VALUE": "> 1000 nM"}
{"CHEMICAL SMILES": "C#C[C@]1(CO)O[C@@H](n2cnc3c(N)ncnc32)C[C@@H]1O", "PROPERTY": "IC50", "TEST VALUE": "> 1000 nM"}
{"CHEMICAL SMILES": "Cc1cn([C@H]2C[C@H](F)[C@@](C)(CO)O2)c(=O)[nH]c1=O", "PROPERTY": "IC50", "TEST VALUE": "> 1000 nM"}
{"CHEMICAL SMILES": "C#C[C@@H]1[C@H](n2ccc(N)nc2=O)O[C@@](CO)(CCl)[C@H]1O", "PROPERTY": "IC50", "TEST VALUE": "> 1000 nM"}
{"CHEMICAL SMILES": "CC[C@]1(CO)O[C@@H](n2ccc(N)nc2=O)C[C@@H]1O", "PROPERTY": "IC50", "TEST VALUE": "> 1000 nM"}
{"CHEMICAL SMILES": "Nc1nc(=O)n([C@@H]2O[C@@](CO)(CCl)[C@@H](O)[C@@H]2O)cc1F", "PROPERTY": "IC50", "TEST VALUE": "> 1000 nM"}
{"CHEMICAL SMILES": "[N-]=[N+]=N[C@]1(CO)O[C@@H](c2cc(I)c3c(N)ncnn23)C[C@@H]1O", "PROPERTY": "IC50", "TEST VALUE": "50 to 100 nM"}
{"CHEMICAL SMILES": "C=C[C@]1(CO)O[C@@H](n2cc(F)c(N)nc2=O)[C@@H](O)[C@@H]1O", "PROPERTY": "IC50", "TEST VALUE": "> 1000 nM"}
{"CHEMICAL SMILES": "N#C[C@]1(CO)O[C@@H](n2cnc3c(N)nc(F)nc32)C[C@@H]1O", "PROPERTY": "IC50", "TEST VALUE": "> 1000 nM"}
{"CHEMICAL SMILES": "Nc1nc(=O)n([C@@H]2O[C@@](CO)(CF)[C@@H](O)[C@@H]2O)cc1F", "PROPERTY": "IC50", "TEST VALUE": "> 1000 nM"}
{"CHEMICAL SMILES": "Nc1ncnc2c1ncn2[C@H]1C[C@H](O)[C@](CO)(CCl)O1", "PROPERTY": "IC50", "TEST VALUE": "> 1000 nM"}
{"CHEMICAL SMILES": "CC(C)C(=O)OC[C@@]1(CCl)O[C@@H](n2cc(F)c(N)nc2=O)[C@@H](F)[C@@H]1OC(=O)C(C)C", "PROPERTY": "IC50", "TEST VALUE": "> 1000 nM"}
{"CHEMICAL SMILES": "Nc1nc(=O)n([C@@H]2O[C@@](CO)(CCl)[C@@H](O)[C@@H]2F)cc1F", "PROPERTY": "IC50", "TEST VALUE": "250 to 1000 nM"}
{"CHEMICAL SMILES": "Cc1cn([C@H]2C[C@H](O)[C@](CO)(CCl)O2)c(=O)[nH]c1=O", "PROPERTY": "IC50", "TEST VALUE": "> 1000 nM"}
{"CHEMICAL SMILES": "Nc1nc(=O)n([C@H]2C[C@H](O)[C@](CO)(CBr)O2)cc1F", "PROPERTY": "IC50", "TEST VALUE": "250 to 1000 nM"}

Ref: patent US12187758B2
